- PROTOCOL: Cytotoxicity against MRP1 overexpressing human MCF7/VP cells after 48 hrs by SRB binding assay
- Format: functional, cell-based
ASSAY_READOUT: pIC50
Note: pIC50 values are expressed as the negative base-10 logarithm of concentration in M.

Query: Endpoint output: pIC50 of "COc1cccc(CCc2cn(Cc3ccccc3)c3nc(N)nc(C)c23)c1" . Value?
Response: 4.66

Query: Endpoint output: pIC50 of "COc1ccc(CCc2cn(Cc3ccccc3)c3nc(N)nc(C)c23)cc1" . Value?
Response: 4.64

Query: Endpoint output: pIC50 of "Cc1nc(N)nc2c1c(CCc1ccccc1)cn2Cc1ccccc1" . Value?
Response: 4.74

Query: Endpoint output: pIC50 of "COc1ccccc1CCc1cn(Cc2ccccc2)c2nc(N)nc(C)c12" . Value?
Response: 5.59

Query: Endpoint output: pIC50 of "COc1cc(CCc2cn(Cc3ccccc3)c3nc(N)nc(C)c23)cc(OC)c1OC" . Value?
Response: 6.60
